Origin of the recorded values: patent US20200181195A1

The entries below come with measured Data of binding experiment (log Kd) values attached.
Biological target: T1, HLA-A*02:06 molecule (HLA-A*02:06 gene product) (human)
T1 construct: whole, on cells; MHC class I on RA2.6 cells (mouse RMAS transfected with HLA-A*02:06); The light chain is not described
Experiment: flow cytometry, RA2.6 cells (RMAS + HLA-A*02:06), peptide dilution series, BB7.2 staining
Provide the reading as a plain figure in log Kd.

Look over these answered cases.
TLAFREGTI (Only the start position in MUC1 is printed; The end of the range follows from the length of 9 residues) [TLAFREGTI (Seq. ID No. 9)] = -3.09
SFFFLSFHI (Only the start position in MUC1 is printed; The end of the range follows from the length of 9 residues) [SFFFLSFHI (Seq. ID No. 8)] = -3.98
STGVSFFFL (Only the start position in MUC1 is printed; The end of the range follows from the length of 9 residues) [STGVSFFFL (Seq. ID No. 10)] = -5.21
AASRYNLTI (Only the start position in MUC1 is printed; The end of the range follows from the length of 9 residues) [AASRYNLTI (Seq. ID No. 5)] = -3.82

Ask | I have this binder here, SVPVTRPAL (Only the start position in MUC1 is printed; The end of the range follows from the length of 9 residues) [SVPVTRPAL (Seq. ID No. 2)] , and I need its recorded Data of binding experiment (log Kd).
Reply | -5.63

Ask | Try this binder too: FLGLSNIKF (Only the start position in MUC1 is printed; The end of the range follows from the length of 9 residues) [FLGLSNIKF (Seq. ID No. 1)]
Reply | -4.39

Ask | And for FSAQSGAGV (Only the start position in MUC1 is printed; The end of the range follows from the length of 9 residues) [FSAQSGAGV (Seq. ID No. 12)] ?
Reply | -5.66

Ask | Next binder up: GVPGWGIAL (Only the start position in MUC1 is printed; The end of the range follows from the length of 9 residues) [GVPGWGIAL (Seq. ID No. 3)]
Reply | -5.76

Ask | Now try LQRDISEMF (Only the start position in MUC1 is printed; The end of the range follows from the length of 9 residues) [LQRDISEMF (Seq. ID No. 6)] .
Reply | -4.26

Ask | Next binder up: GQDVTSVPV (Only the start position in MUC1 is printed; The end of the range follows from the length of 9 residues) [GQDVTSVPV (Seq. ID No. 11)]
Reply | -6.35
